# measured_target: human M2 receptor (Homo sapiens, UniProt P08172)
# Construct: expressed in transfected cells; host or cells: CHO-DUKX (CHO-DUKX-M2-GIRK)
# Sequence (P08172 1-466): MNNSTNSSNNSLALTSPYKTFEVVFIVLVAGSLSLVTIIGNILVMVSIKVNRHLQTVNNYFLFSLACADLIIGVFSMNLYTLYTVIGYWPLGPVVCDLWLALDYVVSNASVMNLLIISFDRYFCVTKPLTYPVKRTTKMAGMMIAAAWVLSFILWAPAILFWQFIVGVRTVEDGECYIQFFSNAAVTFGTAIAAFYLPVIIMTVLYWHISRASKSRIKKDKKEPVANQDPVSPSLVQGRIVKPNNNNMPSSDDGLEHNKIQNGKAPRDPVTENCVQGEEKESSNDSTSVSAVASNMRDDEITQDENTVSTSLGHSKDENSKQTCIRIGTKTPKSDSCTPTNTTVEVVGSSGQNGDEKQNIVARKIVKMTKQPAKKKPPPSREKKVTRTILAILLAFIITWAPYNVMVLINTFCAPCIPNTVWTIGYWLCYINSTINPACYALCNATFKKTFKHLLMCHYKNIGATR
# procedure_text: Functional M2-GIRK1/4 activation test: allosteric potency (EC50) and efficiency at EC20 acetylcholine
# Assay type: cell-based
# test_context: boosting of the acetylcholine effect at EC20 acetylcholine concentration; CHO-DUKX-M2-GIRK cells
assay_metric: Emax (%)

CC(NC(=O)c1cn(-c2c(F)cc(F)cc2F)c2nc(N3CCOCC3)c(F)cc2c1=O)C(F)(F)C(F)(F)F (racemic) [Example 146]; 100
CC[C@H](NC(=O)c1cn(-c2ncc(F)cc2F)c2nc(N3CC[C@H](O)C3)c(F)cc2c1=O)C(F)(F)F [Example 152]; 100
O=C(N[C@@H](C1CC1)C(F)(F)F)c1cn(-c2c(F)cc(F)cc2F)c2nc(N3C[C@@H](O)[C@H](O)C3)c(F)cc2c1=O [Example 7]; 93
CCC(NC(=O)c1cn(-c2c(F)cc(F)cc2F)c2nc(N3CCOCC3)c(F)cc2c1=O)C(F)(F)C(F)(F)F (racemic) [Example 148]; 96
O=C(NC(C1CC1)(C1CC1)C(F)(F)C(F)(F)F)c1cn(-c2c(F)cc(F)cc2F)c2nc(N3C[C@@H](O)[C@H](O)C3)c(F)cc2c1=O [Example 208]; 100
CC[C@H](NC(=O)c1cn(-c2c(F)cc(F)cc2F)c2nc(N3CCCC[C@H]3CO)c(F)cc2c1=O)C(F)(F)F [Example 57]; 89
CC(C)C(COC(F)(F)F)NC(=O)c1cn(-c2c(F)cc(F)cc2F)c2nc(N3C[C@@H](O)[C@H](O)C3)c(F)cc2c1=O (mixture of isomers) [Example 233]; 100
CCC(COC(F)(F)F)NC(=O)c1cn(-c2c(F)cc(F)cc2F)c2nc(N3C[C@@H](O)[C@H](O)C3)c(F)cc2c1=O (single isomer, unassigned) [Example 31]; 100
CCC(C)(CC)NC(=O)c1cn(-c2c(F)cc(F)cc2F)c2nc(N3C[C@@H](O)[C@H](O)C3)c(F)cc2c1=O [Example 88]; 100
CC(C)(NC(=O)c1cn(-c2c(F)cc(F)cc2F)c2nc(N3CC[C@H](O)[C@@H]3CO)c(F)cc2c1=O)C(F)(F)C(F)(F)F [Example 193]; 100
CC[C@H](NC(=O)c1cn(-c2c(F)cccc2F)c2nc(N3C[C@@H](O)[C@H](O)C3)c(F)cc2c1=O)C(F)(F)F [Example 3]; 97
O=C(NC(C(F)(F)F)C(F)(F)F)c1cn(-c2ncc(F)cc2F)c2nc(N3CCC(CO)(CO)CC3)c(F)cc2c1=O [Example 195]; 100
CN(CCO)c1nc2c(cc1F)c(=O)c(C(=O)N[C@@H](C1CC1)C(F)(F)F)cn2-c1c(F)cc(F)cc1F [Example 55]; 96
